- Tested on: Schistosoma mansoni
- Assay overview: Antischistosomal activity against adult Schistosoma mansoni assessed as decrease in viability after 72 hrs by microscopic analysis
- Assay type: functional, organism-based
pIC50: −log10 of the molar value.
Returns one of True or False; True when pIC50 is >= 5.

Please review the entries below; each comes with its answer.
| Compound | Class name |
| --- | --- |
| CC(=O)[C@@]1(Cc2ccc([N+](=O)[O-])cc2)CC[C@]2(C)OO[C@@]1(C)O2 | False |
| CC(=O)[C@]1(Cc2ccccc2)CC[C@]2(C)OO[C@@]1(C)O2 | True |

Now take the following compound into account.
Data request: Tell me whether pIC50 is at least 5 here: CC(=O)CCC1(Cc2ccc(Cl)cc2)[C@]2(C)OO[C@@]1(C)OO2 (stereo partly specified)
Data returned: False

* * *

- System: Schistosoma mansoni
- Assay overview: Antischistosomal activity against adult Schistosoma mansoni assessed as decrease in viability after 72 hrs by microscopic analysis
- Type: functional, organism-based
Assay endpoint: pIC50
Give bare numbers, as −log10 of the molar value.

Recorded results for 3 compounds are shown here.
| Compound | Assay endpoint | Quantitative readout |
| --- | --- | --- |
| CCCC[C@]1(C(C)=O)CCC2(C)OOC1(C)O2 (single isomer, unassigned) | pIC50 | 4.91 |
| CC(=O)[C@]1(Cc2ccc([N+](=O)[O-])cc2)CC[C@]2(C)OO[C@@]1(C)O2 | pIC50 | 5.15 |
| CC(C)C[C@@]12OO[C@]3(C)OC(C)(CCC31)O2 | pIC50 | 5.70 |

// for each compound below, give its pIC50
1. CC(=O)[C@@]1(Cc2ccc(Cl)cc2)CC[C@]2(C)OO[C@@]1(C)O2
2. CC(=O)[C@]1(Cc2ccc(Br)cc2)CC[C@]2(C)OO[C@@]1(C)O2
3. CC(C)C[C@]12OO[C@](C)(OO1)C2C12CC3CC(CC(C3)C1)C2 (stereo partly drawn)
4. CC(=O)CCC1(Cc2ccc(C)cc2)[C@]2(C)OO[C@@]1(C)OO2 (stereo partly drawn)
5. CC(=O)CCC1(Cc2ccccc2)[C@]2(C)OO[C@@]1(C)OO2 (stereo partly drawn)

Data returned:
[4.95, 5.18, 5.74, 5.01, 4.96]

// for each compound below, give its pIC50
1. CC(=O)[C@@]1(Cc2ccc(C)cc2)CC[C@]2(C)OO[C@@]1(C)O2
2. CC1[C@]2(C)OO[C@@]1(C13CC4CC(CC(C4)C1)C3)OO2 (stereo partly drawn)
3. C[C@]12C[C@](C34CC5CC(CC(C5)C3)C4)(OO1)OO2

Data returned:
1. 5.13
2. 5.41
3. 5.70

* * *

Kindly supply the reported IC50 values for the records listed here.
- Test system: Schistosoma mansoni
- Assay overview: Antischistosomal activity against adult Schistosoma mansoni assessed as decrease in viability after 72 hrs by microscopic analysis
- Assay type: functional, organism-based
Numbers only, in µM.

Recorded results for 2 compounds are shown here.
| Compound | IC50 (µM) |
| --- | --- |
| CC(=O)CCC1(Cc2ccc(Br)cc2)[C@]2(C)OO[C@@]1(C)OO2 (some centres not stated) | 8.4 |
| CC[C@]12OO[C@@]3(CC(C)C)OC(C)(CCC31)O2 | 4.4 |

// for each compound below, give its IC50
1. CC(=O)[C@@]1(Cc2ccc(Br)cc2)CC[C@]2(C)OO[C@@]1(C)O2
2. CC(=O)[C@]1(Cc2ccc(Cl)cc2)CC[C@]2(C)OO[C@@]1(C)O2
3. CC[C@]12C[C@](C34CC5CC(CC(C5)C3)C4)(OO1)OO2
4. CC(=O)[C@]1(Cc2ccc(C)cc2)CC[C@]2(C)OO[C@@]1(C)O2
5. CC(=O)[C@@]1(Cc2ccccc2)CC[C@]2(C)OO[C@@]1(C)O2

Data returned:
4.2
4.2
2
10
10.3

Numbers sourced from ChEMBL document CHEMBL3596151.
